- Test system: mushroom tyrosinase
- Method summary: Tyrosinase inhibition assay (diphenolase activity, L-DOPA as substrate)
- Format: biochemical
- Experimental conditions: mushroom tyrosinase, substrate L-DOPA, compound at 0.8 mM
Measurement name: % inhibition (at 0.8 mM)
The answer consists of two parts: a number and, after it, its unit.

These recorded examples may help you get a feel for the data.
INSERT INTO assay_data (compound, recorded_measurement) VALUES
  ('O=c1oc2cc(O)ccc2cc1-c1cc(O)cc(O)c1', '19.3%'),
  ('O=c1oc2c(O)cc(O)cc2cc1-c1cc(O)cc(O)c1', '0%'),
  ('O=c1oc2cc(O)ccc2cc1-c1ccccc1', '0%'),
  ('O=c1oc2ccccc2cc1-c1ccc(O)cc1', '0%'),
  ('O=c1oc2ccc(O)cc2cc1-c1cc(O)cc(O)c1', '0%'),
  ('O=c1oc2ccc(O)cc2cc1-c1ccc(O)cc1 [Compound 4, 6-hydroxy-3-(4’-hydroxyphenyl)coumarin]', '26.7%'),
  ('O=c1oc2cc(O)ccc2cc1-c1ccc(O)cc1', '9.6%');

// moving on: another record for % inhibition (at 0.8 mM)
State % inhibition (at 0.8 mM) on mushroom tyrosinase. Entry: O=c1oc2c(O)cc(O)cc2cc1-c1cc(O)c(O)c(O)c1
68.3%

###

Exercise: state measured IC50 for each of the compounds provided.
- Target of assay: mushroom tyrosinase
- Method summary: Tyrosinase inhibition assay (diphenolase activity, L-DOPA as substrate)
- Format: biochemical
- Experimental conditions: mushroom tyrosinase, substrate L-DOPA
Answers are plain numbers, in µM.

Go through the items and report each one's IC50.
1. O=c1oc2c(O)cc(O)cc2cc1-c1cc(O)c(O)c(O)c1
2. O=c1oc2cc(O)ccc2cc1-c1cc(O)cc(O)c1

1: 270; 2: 3680

State IC50 on mushroom tyrosinase. Entry: O=c1oc2ccc(O)cc2cc1-c1ccc(O)cc1 [Compound 4, 6-hydroxy-3-(4’-hydroxyphenyl)coumarin]
1560
